Documented apparent KD of MS2 coat protein across a set of sequences
test system: MS2 coat protein; assay: apparent KD of MS2 coat protein; designed switch direction (-1 OFF switch, 1 ON switch): -1; higher = weaker reporter binding; conditions: Eterna round: R98; input ligand: none
Hi! Could you send only the number? It should be in nM, unit omitted.

Previously resolved entries follow.
chain: UAUAUAAUUAAGAGCUGGUCCAAAACAUGAGGAUCACCCAUGUAGGAUAUCAGCACGAUAAGUGCUGAGAAGGACAACCAGCUC [Denovo 85]
units_symbol: nM
measured_value: 17.2
--
chain: GGUUGUUACGCAGGAUAUUGCCAACAGGCAGUAGGAUAUCCGAAAGGAGAAGGAUCGCCAACAGGCGAGAAGGGCGGGUUAACC [pwkr exNG2 2xF7 2FMN.10.5]
units_symbol: nM
measured_value: 1240
--
chain: UAUAUAUAGGCAGGAUAUACAUGUAUAUAUAAUAUAUUAUAUAUUAUUACAUGAGGAUCACCCAUGUAGAAGGGCCAUAAUAUA [LRO035_Exclusion NG 2]
units_symbol: nM
measured_value: 30
--
chain: GAGGACUGUAAUAAUGUAGAAAUACAUGAGGAUCACCCAUGUAAGGAUAUCGUCAGGAAUACUGACGAGAAGGUACAUCAGUCC [Exclusion NG 3/10-A2]
units_symbol: nM
measured_value: 17.3
--
chain: ACCAUUUACUAAUCCUCUAUACAUGAGGAUCACCCAUGUUCUGAGGAUAUCAUCGUUCGCCGCGUUGAGAAGGCAGAGCAUUCG [AriestionMod 1 - Jieux - Exclusion NG 3]
units_symbol: nM
measured_value: 26.8
--
chain: GUCACGAAUGUAGGAUAUCGAGUGGAAUACACUCGAGAAGGACAUGAGGAUCACCCAUGUAAAAUGAAAGAUAAUAAACGUGAC [Exclsuion NG 1/2-B1]
units_symbol: nM
measured_value: 18

Shifting focus to the sequence that follows.
(Q) # lookup: MS2 coat protein apparent KD of MS2 coat protein, key = UUCUGUGCCCAAAGUUAAAGCACAUGAGGAUCACCCAUGUGAAAGGAUAUGUGGCAUGUAAUGUUAUAGAAGGUUCACAAUCAA [Reveention]
(A) 14.2

---

test system: MS2 coat protein; assay: apparent KD of MS2 coat protein; designed switch direction (-1 OFF switch, 1 ON switch): 1; higher = weaker reporter binding; conditions: input ligand: none
measured_metric: apparent KD of MS2 coat protein (nM)
Hi! Could you send only the number? It should be in nM, unit omitted.

Previously resolved entries follow.
chain: AGAUCAUGACGAGGAUAUGGAACAUGAGGAUCACCCAUGUAUGUUCCAUAACGCGAAUGACGAAUCCAGAAGGCGUCGUGAUCA [Mat - Same State NG 2 - JL mod - D26] (Eterna round: R96, puzzle: Same State NG 2)
units_symbol: nM
apparent KD of MS2 coat protein: 116

chain: GACCGCGAGGAAGGAUAUGGAGCCUUAUUGGCUCCAGAAGGUCCAUAAAGGACAUGAGGAUCACCCAUGUGGGCUGAAGCGGUC [Fiskers NG1ss - 9] (Eterna round: R96, puzzle: Same State NG 1)
units_symbol: nM
apparent KD of MS2 coat protein: 35.1

chain: CUGUAUCGCGGAGGAUAUGGGCUGAGACCAGGGCAACCCUGGUCAACAUGAGGAUCACCCAUGUCCCAGAAGGCCGCGAUGCUA [Diaraenve] (Eterna round: R96, puzzle: Same State NG 2)
units_symbol: nM
apparent KD of MS2 coat protein: 113

(Q) Please supply the value of reported apparent KD of MS2 coat protein for the item CGGGUGGUUCUAGGAUAUCUAGGAUAUGGACGAGGAUUACCCGAGCAGCAUCAGCGCACCAGAGGAGAGAAGGAGAGUCAUGCG [pwkr ssNG2 2F5 2FMN.9] (Eterna round: R96, puzzle: Same State NG 2)
(A) 86.8
